Assay: Cmax in Sprague-Dawley rat at 1 mg/kg, iv
Assay type: ADME, organism-based
Set-up: dose 1 mg/kg, route intravenous
Conditions: in vivo
Readout Kind: Cmax (ng/mL)
Give bare numbers, in ng/mL.

For the molecule shown here, Cc1ccc(C(=O)N2CCC(Oc3cc(NC(=O)c4ccc(CN5CCN(C)CC5)c(C(F)(F)F)c4)ccc3C)CC2)cn1 , give the reported Cmax.
825

====

Biological target: BCR/ABL p210 fusion protein (Homo sapiens, UniProt A1Z199)
Sequence (A1Z199 1-97): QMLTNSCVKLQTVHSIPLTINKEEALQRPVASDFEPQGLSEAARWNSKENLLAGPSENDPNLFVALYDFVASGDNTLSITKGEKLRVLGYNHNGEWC
Assay: Inhibition of human BCR/ABL p210 fusion protein expressed in BAF3 cells assessed as growth inhibition measured after 72 hrs by CellTiter-Glo or CCK8 assay
Assay type: cell-based
Under this convention, TRUE denotes GI50 strictly below 300 nM and FALSE denotes GI50 at or above 300 nM.

Cc1ccc(NC(=O)c2ccc(CN3CCN(C)CC3)c(C(F)(F)F)c2)cc1OC1CCN(C(=O)c2ccccn2)CC1	TRUE
Cc1ccc(NC(=O)c2ccc(CN3CCN(C)CC3)c(C(F)(F)F)c2)cc1OC1CCN(C(=O)c2ccccc2)CC1	FALSE
Cc1ccc(NC(=O)c2ccc(CN3CCN(C)CC3)c(C(F)(F)F)c2)cc1OC1CCN(C(=O)c2cccnc2)CC1	TRUE
Cc1ccc(NC(=O)c2ccc(CN3CCN(C)CC3)c(C(F)(F)F)c2)cc1OCC1CN(C(=O)c2cccnc2)C1	FALSE
Cc1ccc(NC(=O)c2ccc(CN3CCN(C)CC3)c(C(F)(F)F)c2)cc1OC1CCN(C(=O)c2cnc(N)nc2)CC1	TRUE
CCC(=O)N1CCC(Oc2cc(NC(=O)c3ccc(CN4CCN(C)CC4)c(C(F)(F)F)c3)ccc2C)CC1	FALSE
Cc1ccc(NC(=O)c2ccc(CN3CCN(C)CC3)c(C(F)(F)F)c2)cc1OC1CCN(C(=O)c2ccoc2)CC1	TRUE
Cc1ccc(NC(=O)c2ccc(CN3CCN(C)CC3)cc2)cc1OC1CCN(C(=O)c2cccnc2)CC1	FALSE

Record CN1CCN(Cc2ccc(C(=O)Nc3ccc(Cl)c(OC4CCN(C(=O)c5cccnc5)CC4)c3)cc2C(F)(F)F)CC1 : is its GI50 strictly below 300 nM?
TRUE

Record Cc1ccc(NC(=O)c2ccc(CN3CCN(C)CC3)c(C(F)(F)F)c2)cc1OC1CCN(C(=O)c2ccncc2)CC1 : is its GI50 strictly below 300 nM?
TRUE
